What activity coefficient was measured for each of the following?
assayComment: activity coefficient (dimensionless); of the first substance listed, at infinite dilution; xn = mol fraction of the nth substance listed
measurementContext: 328.15 K; 101 kPa; Liquid; Chromatography; x1 = 0
Lab note: jot the number down without any unit.

Input: Reported activity coefficient, compound CCCCCCCCCC [decane] + C[N+]1(CCCO)CCOCC1.O=S(=O)([N-]S(=O)(=O)C(F)(F)F)C(F)(F)F : ____
Output: 543

Input: Reported activity coefficient, compound CCC(=O)OC [methyl propanoate] + C[N+]1(CCCO)CCOCC1.O=S(=O)([N-]S(=O)(=O)C(F)(F)F)C(F)(F)F : ____
Output: 1.51

Input: Reported activity coefficient, compound C#CCCCCCC [1-octyne] + C[N+]1(CCCO)CCOCC1.O=S(=O)([N-]S(=O)(=O)C(F)(F)F)C(F)(F)F : ____
Output: 31.3

Input: Reported activity coefficient, compound C=CCCCCC [1-heptene] + C[N+]1(CCCO)CCOCC1.O=S(=O)([N-]S(=O)(=O)C(F)(F)F)C(F)(F)F : ____
Output: 75.8

Input: Reported activity coefficient, compound CCC(C)O (stereo unspecified) [butan-2-ol] + C[N+]1(CCCO)CCOCC1.O=S(=O)([N-]S(=O)(=O)C(F)(F)F)C(F)(F)F : ____
Output: 2.52

Input: Reported activity coefficient, compound O [water] + C[N+]1(CCCO)CCOCC1.O=S(=O)([N-]S(=O)(=O)C(F)(F)F)C(F)(F)F : ____
Output: 1.36

Input: Reported activity coefficient, compound C1COCCO1 [1,4-dioxane] + C[N+]1(CCCO)CCOCC1.O=S(=O)([N-]S(=O)(=O)C(F)(F)F)C(F)(F)F : ____
Output: 0.653

Input: Reported activity coefficient, compound CC#N [acetonitrile] + C[N+]1(CCCO)CCOCC1.O=S(=O)([N-]S(=O)(=O)C(F)(F)F)C(F)(F)F : ____
Output: 0.495

Input: Reported activity coefficient, compound COC(C)(C)C [2-methoxy-2-methylpropane] + C[N+]1(CCCO)CCOCC1.O=S(=O)([N-]S(=O)(=O)C(F)(F)F)C(F)(F)F : ____
Output: 5.07

Input: Reported activity coefficient, compound CCC(=O)CC [pentan-3-one] + C[N+]1(CCCO)CCOCC1.O=S(=O)([N-]S(=O)(=O)C(F)(F)F)C(F)(F)F : ____
Output: 1.33

Input: Reported activity coefficient, compound CC(C)O [propan-2-ol] + C[N+]1(CCCO)CCOCC1.O=S(=O)([N-]S(=O)(=O)C(F)(F)F)C(F)(F)F : ____
Output: 1.78

Input: Reported activity coefficient, compound C=Cc1ccccc1 [styrene] + C[N+]1(CCCO)CCOCC1.O=S(=O)([N-]S(=O)(=O)C(F)(F)F)C(F)(F)F : ____
Output: 3.51

Input: Reported activity coefficient, compound CCOC(C)=O [ethyl acetate] + C[N+]1(CCCO)CCOCC1.O=S(=O)([N-]S(=O)(=O)C(F)(F)F)C(F)(F)F : ____
Output: 1.56

Input: Reported activity coefficient, compound CC(C)(C)O [2-methylpropan-2-ol] + C[N+]1(CCCO)CCOCC1.O=S(=O)([N-]S(=O)(=O)C(F)(F)F)C(F)(F)F : ____
Output: 2.06

Input: Reported activity coefficient, compound C1CCCCC1 [cyclohexane] + C[N+]1(CCCO)CCOCC1.O=S(=O)([N-]S(=O)(=O)C(F)(F)F)C(F)(F)F : ____
Output: 55.7

Input: Reported activity coefficient, compound c1ccncc1 [pyridine] + C[N+]1(CCCO)CCOCC1.O=S(=O)([N-]S(=O)(=O)C(F)(F)F)C(F)(F)F : ____
Output: 0.461

Input: Reported activity coefficient, compound CCCCCCCC [octane] + C[N+]1(CCCO)CCOCC1.O=S(=O)([N-]S(=O)(=O)C(F)(F)F)C(F)(F)F : ____
Output: 265

Input: Reported activity coefficient, compound C1CCCCCCC1 [cyclooctane] + C[N+]1(CCCO)CCOCC1.O=S(=O)([N-]S(=O)(=O)C(F)(F)F)C(F)(F)F : ____
Output: 93.7

Input: Reported activity coefficient, compound CC(C)=O [acetone] + C[N+]1(CCCO)CCOCC1.O=S(=O)([N-]S(=O)(=O)C(F)(F)F)C(F)(F)F : ____
Output: 0.517

Input: Reported activity coefficient, compound C#CCCCC [1-hexyne] + C[N+]1(CCCO)CCOCC1.O=S(=O)([N-]S(=O)(=O)C(F)(F)F)C(F)(F)F : ____
Output: 11.9

Input: Reported activity coefficient, compound COC(C)=O [methyl ethanoate] + C[N+]1(CCCO)CCOCC1.O=S(=O)([N-]S(=O)(=O)C(F)(F)F)C(F)(F)F : ____
Output: 0.971

----------
assayComment: activity coefficient (dimensionless); of the first substance listed, at infinite dilution; xn = mol fraction of the nth substance listed
measurementContext: 328.15 K; 101 kPa; Liquid; Chromatography; x1 = 0
What activity coefficient was measured for each of the following?
Lab note: jot the number down without any unit.

Input: Reported activity coefficient, molecule C1CCCCCC1 [cycloheptane] + C[N+]1(CCCO)CCOCC1.O=S(=O)([N-]S(=O)(=O)C(F)(F)F)C(F)(F)F : ____
Output: 71

Input: Reported activity coefficient, molecule Cc1ccccc1 [toluene] + C[N+]1(CCCO)CCOCC1.O=S(=O)([N-]S(=O)(=O)C(F)(F)F)C(F)(F)F : ____
Output: 4.08

Input: Reported activity coefficient, molecule CC(C)CC(C)(C)C [2,2,4-trimethylpentane] + C[N+]1(CCCO)CCOCC1.O=S(=O)([N-]S(=O)(=O)C(F)(F)F)C(F)(F)F : ____
Output: 226

Input: Reported activity coefficient, molecule C#CCCC [1-pentyne] + C[N+]1(CCCO)CCOCC1.O=S(=O)([N-]S(=O)(=O)C(F)(F)F)C(F)(F)F : ____
Output: 7.48

Input: Reported activity coefficient, molecule CCCCCCCCC [nonane] + C[N+]1(CCCO)CCOCC1.O=S(=O)([N-]S(=O)(=O)C(F)(F)F)C(F)(F)F : ____
Output: 385

----------
assayComment: activity coefficient (dimensionless); of the first substance listed, at infinite dilution; xn = mol fraction of the nth substance listed
measurementContext: 358.15 K; 101 kPa; Liquid; Chromatography; x1 = 0
experimentalEndpoint: activity coefficient

Input: Reported activity coefficient, molecule CCCC(=O)OC [methyl butanoate] + C[N+]1(CCCO)CCOCC1.O=S(=O)([N-]S(=O)(=O)C(F)(F)F)C(F)(F)F : ____
Output: 2.68

Input: Reported activity coefficient, molecule C1CCCC1 [cyclopentane] + C[N+]1(CCCO)CCOCC1.O=S(=O)([N-]S(=O)(=O)C(F)(F)F)C(F)(F)F : ____
Output: 23.5

Input: Reported activity coefficient, molecule CCCCCCCCCC [decane] + C[N+]1(CCCO)CCOCC1.O=S(=O)([N-]S(=O)(=O)C(F)(F)F)C(F)(F)F : ____
Output: 363

Input: Reported activity coefficient, molecule C=COC(C)=O [vinyl acetate] + C[N+]1(CCCO)CCOCC1.O=S(=O)([N-]S(=O)(=O)C(F)(F)F)C(F)(F)F : ____
Output: 2

Input: Reported activity coefficient, molecule CC(C)OC(C)C [diisopropyl ether] + C[N+]1(CCCO)CCOCC1.O=S(=O)([N-]S(=O)(=O)C(F)(F)F)C(F)(F)F : ____
Output: 16.5

----------
What activity coefficient was measured for each of the following?
assayComment: activity coefficient (dimensionless); of the first substance listed, at infinite dilution; xn = mol fraction of the nth substance listed
measurementContext: 368.15 K; 101 kPa; Liquid; Chromatography; x1 = 0
Lab note: jot the number down without any unit.

Input: Reported activity coefficient, compound CC(C)CC(C)(C)C [2,2,4-trimethylpentane] + C[N+]1(CCCO)CCOCC1.O=S(=O)([N-]S(=O)(=O)C(F)(F)F)C(F)(F)F : ____
Output: 125

Input: Reported activity coefficient, compound Cc1cccc(C)c1 [1,3-dimethylbenzene] + C[N+]1(CCCO)CCOCC1.O=S(=O)([N-]S(=O)(=O)C(F)(F)F)C(F)(F)F : ____
Output: 6.92

Input: Reported activity coefficient, compound COC(C)=O [methyl ethanoate] + C[N+]1(CCCO)CCOCC1.O=S(=O)([N-]S(=O)(=O)C(F)(F)F)C(F)(F)F : ____
Output: 1.14

Input: Reported activity coefficient, compound C#CCCCC [1-hexyne] + C[N+]1(CCCO)CCOCC1.O=S(=O)([N-]S(=O)(=O)C(F)(F)F)C(F)(F)F : ____
Output: 10.4

Input: Reported activity coefficient, compound C#CCCCCCC [1-octyne] + C[N+]1(CCCO)CCOCC1.O=S(=O)([N-]S(=O)(=O)C(F)(F)F)C(F)(F)F : ____
Output: 25.5

Input: Reported activity coefficient, compound CCOC(C)(C)C [2-ethoxy-2-methylpropane] + C[N+]1(CCCO)CCOCC1.O=S(=O)([N-]S(=O)(=O)C(F)(F)F)C(F)(F)F : ____
Output: 14.8

Input: Reported activity coefficient, compound CC1CCCCC1 [methylcyclohexane] + C[N+]1(CCCO)CCOCC1.O=S(=O)([N-]S(=O)(=O)C(F)(F)F)C(F)(F)F : ____
Output: 49.1

Input: Reported activity coefficient, compound C=CCCCCC [1-heptene] + C[N+]1(CCCO)CCOCC1.O=S(=O)([N-]S(=O)(=O)C(F)(F)F)C(F)(F)F : ____
Output: 51.1

Input: Reported activity coefficient, compound CC#N [acetonitrile] + C[N+]1(CCCO)CCOCC1.O=S(=O)([N-]S(=O)(=O)C(F)(F)F)C(F)(F)F : ____
Output: 0.561

Input: Reported activity coefficient, compound CCC(C)(C)OC [2-methoxy-2-methylbutane] + C[N+]1(CCCO)CCOCC1.O=S(=O)([N-]S(=O)(=O)C(F)(F)F)C(F)(F)F : ____
Output: 8.93

Data origin: the NIST ThermoML archive (doi:10.1016/j.jct.2015.02.024)
